# System: U251 CNS
# method_description: NCI-60 one-dose screen, 48 h (100 = growth as untreated, 0 = no growth, -100 = all killed)
# test_settings: 10 µM unless noted
Compounds without any hit were thinned out: in the full panel of roughly 83,000, 20% have a hit.
Listed below: growth values for each entry.

- compound: "Cc1ccc(S(=O)(=O)c2nc(-c3ccccc3)oc2S(C)=O)cc1 (stereo not given)"
  units_symbol: "%"
  growth: 45.1
- compound: "COc1ccc(NC(=O)c2sc3nc(C)c(C(=O)c4ccccc4)cc3c2N)cc1"
  units_symbol: "%"
  growth: 100
- compound: "O=C(c1ccc(F)cc1)C1CCN(CCn2c(=O)[nH]c3ccccc3c2=O)CC1"
  units_symbol: "%"
  growth: 101
- compound: "CCCn1cnc2c(c1=N)C(c1ccc(Cl)cc1)c1sc3c(F)cccc3c1O2 (stereo not given)"
  units_symbol: "%"
  growth: 59.8
- compound: "Cc1ccc(C(F)(F)F)cc1N1CCN(C(=O)[C@H]2C[C@H]2c2ccc(C(F)(F)F)nc2)CC1"
  units_symbol: "%"
  growth: 94.2
- compound: "COc1ccc(C(=O)C2OC3=C(C(=O)CC(C)(C)C3)C2c2cccc(Oc3ccccc3)c2)cc1 (stereo not given)"
  units_symbol: "%"
  growth: 88.9
- compound: "CO[C@H]1CC(c2ccc[nH]2)=N[C@]12O[C@@H](C)C[C@@H]1CCCCCCCc3ccc([nH]3)[C@H]12"
  units_symbol: "%"
  growth: 19.7
- compound: "CCOC(=O)CC1CSC(N/N=C/c2ccc(O)cc2)=N1 (stereo not given)"
  units_symbol: "%"
  growth: 98.9
- compound: "COC(=O)[C@@H](Cc1c[nH]c2ccccc12)NC[C@@H](O)CN1C(=O)/C(=C\\c2cc(OC)c(OC)c(OC)c2)c2ccccc21"
  units_symbol: "%"
  growth: 55.6
- compound: "COC(=O)c1nc(-c2ccc(C)cc2)oc1N1CCOCC1"
  units_symbol: "%"
  growth: 100
- compound: "COc1cccc(-c2nn(-c3ccccc3)cc2-c2ccnc(-c3cccnc3)c2)c1"
  units_symbol: "%"
  growth: 104
- compound: "CC1=C2[C@@H](CC1)[C@]1(C)O[C@@](C(C)C)(C[C@H]1OC(=O)CO)[C@H]2OC(=O)CCCc1ccccc1"
  units_symbol: "%"
  growth: 74.5
- compound: "Cc1ccc2c(n1)C[C@H](C(C)(C)O)CC[C@H]2C"
  units_symbol: "%"
  growth: 94.4
- compound: "Cc1[nH]c(C2CC(c3ccc(C(F)(F)F)c(F)c3)=NN2C)c(C)c1C(=O)NCC(F)(F)F (stereo not given)"
  units_symbol: "%"
  growth: 96.8
- compound: "COc1cc(C2CC(c3cccc(Nc4ccncc4)c3)=Nc3c(N)ncnc3N2)cc(OC)c1OC (stereo not given)"
  units_symbol: "%"
  growth: 77.7

* * *

# Tested on: HT29 colon
# method_description: NCI-60 one-dose screen, 48 h (100 = growth as untreated, 0 = no growth, -100 = all killed)
# test_settings: 10 µM unless noted
About 83,000 compounds went through this panel and 20% of them were active in at least one assay; those are over-represented in the sample as a whole.
# label = 1 if growth < 10% else -1

- compound: "C/C=C(/C)C(=O)O[C@@H]1CC(C)(C)CC2C34OC(=O)[C@@]21CC[C@@]3(C)[C@]1(C)CCC2C(C)(C)C(=O)CC[C@]2(C)C1C[C@@H]4O (stereo partly drawn)"
  category: -1
- compound: "CS(=O)(=O)c1ccc(/C(=N/NC(N)=S)c2ccc(F)cc2)cc1"
  category: -1
- compound: "C1=C2CCCC3=Cc4ccccc4OC23Oc2ccccc21"
  category: 1
- compound: "CCNc1nc(-c2ccc(Cl)c(OC)c2)c(-c2ccnc(NCCNS(=O)(=O)c3ccc(Cl)cc3)n2)s1"
  category: 1
- compound: "C=C(C[n+]1ccccc1)[C@@H]1CC[C@]2(C(=O)OC)CC[C@]3(C)[C@H](CC[C@@H]4[C@@]5(C)CCC(=O)C(C)(C)[C@@H]5CC[C@]43C)[C@@H]12"
  category: -1
- compound: "CO[C@H]1CC(c2ccc[nH]2)=N[C@]12O[C@@H](C)C[C@@H]1CCCCCCCc3ccc([nH]3)[C@H]12"
  category: -1
- compound: "CCOC(=O)c1c2c(n3ccc(NC(=O)CCN4CCCC4)cc13)C(=O)c1ncccc1C2=O"
  category: 1
- compound: "COc1ccc(Nc2nccc(Nc3ccc4[nH]ncc4c3)n2)cc1"
  category: -1
